# target under test: DRB1*0701 (Homo sapiens, UniProt P01903+P01911, A100R/A102G/A103Q/D57E/D86V/E43K/F76Y/K127E/L162R/M171V/P40G/Q125H/Q99D/R33Q/R42Y/R54Q/S133A/S66F/T210M/V115G/Y107V/Y59L/Y89S)
# assay: biochemical
So I've got a bunch of compounds here, and I need their pIC50 values.
One number for each entry, as −log10 of the molar value.

Use the examples below as a reference point.
1) CC[C@H](C)[C@H](NC(=O)[C@H](CC(=O)O)NC(=O)[C@@H](N)CC(C)C)C(=O)N[C@@H](CCC(=O)O)C(=O)N[C@@H](CC(C)C)C(=O)N[C@@H](CCC(N)=O)C(=O)N[C@@H](CCCCN)C(=O)N[C@H](C(=O)N[C@@H](CCC(=O)O)C(=O)N[C@@H](C)C(=O)N[C@H](C(=O)N[C@@H](CCC(N)=O)C(=O)N[C@@H](CC(C)C)C(=O)N[C@@H](C)C(=O)N[C@H](C(=O)O)[C@@H](C)O)[C@@H](C)O)[C@@H](C)O	8.51
2) CC[C@H](C)[C@H](NC(=O)[C@H](CC(C)C)NC(=O)[C@H](CCCCN)NC(=O)CN)C(=O)N[C@@H](Cc1c[nH]cn1)C(=O)N[C@@H](CCC(=O)O)C(=O)N[C@@H](Cc1c[nH]c2ccccc12)C(=O)N[C@@H](CS)C(=O)N[C@@H](CS)C(=O)N[C@@H](CCCNC(=N)N)C(=O)N[C@@H](CO)C(=O)N[C@@H](CS)C(=O)N[C@H](C(=O)N[C@@H](CC(C)C)C(=O)N1CCC[C@H]1C(=O)O)[C@@H](C)O	5.92

Problem: Name the recorded pIC50 of the item CC[C@H](C)[C@H](NC(=O)[C@H](CC(N)=O)NC(=O)CNC(=O)[C@@H](NC(=O)CNC(=O)[C@H](CC(N)=O)NC(=O)[C@@H](N)CO)[C@@H](C)O)C(=O)N[C@H](C(=O)N[C@@H](CO)C(=O)N[C@@H](CO)C(=O)N[C@H](C(=O)N[C@@H](CC(N)=O)C(=O)N[C@@H](CCSC)C(=O)N[C@H](C(=O)N[C@@H](CO)C(=O)N[C@@H](CCCNC(=N)N)C(=O)N[C@@H](CC(C)C)C(=O)O)C(C)C)C(C)C)C(C)C in your answer.
Result: 7.68

====

So I've got a bunch of compounds here, and I need their pIC50 values.
# target under test: DRB1*1501 (Homo sapiens, UniProt P01903+P01911)
# assay: biochemical
Answers are plain numbers, as −log10 of the molar value.

1) CC[C@H](C)[C@H](NC(=O)[C@H](CC(=O)O)NC(=O)CNC(=O)[C@@H](NC(=O)[C@@H](NC(=O)[C@@H](NC(=O)[C@@H](NC(=O)[C@H](CC(C)C)NC(=O)[C@@H](N)CCCCN)[C@@H](C)O)C(C)C)C(C)C)C(C)C)C(=O)N[C@H](C(=O)NCC(=O)N[C@H](C(=O)N[C@@H](CC(C)C)C(=O)N[C@@H](CCC(=O)O)C(=O)N[C@@H](CCC(N)=O)C(=O)O)C(C)C)[C@@H](C)CC	7.68

Proceed to the following item.
Problem: // fetch pIC50; item: CC[C@H](C)[C@H](NC(=O)[C@H](C)NC(=O)[C@H](CC(N)=O)NC(=O)[C@H](C)NC(=O)[C@H](CC(C)C)NC(=O)[C@H](CCC(N)=O)NC(=O)[C@H](CCCNC(=N)N)NC(=O)[C@H](Cc1c[nH]cn1)NC(=O)[C@H](CCC(=O)O)NC(=O)[C@@H]1CCCN1)C(=O)N[C@@H](Cc1ccccc1)C(=O)N[C@@H](CCCCN)C(=O)N[C@@H](CC(C)C)C(=O)N[C@H](C(=O)N[C@@H](Cc1ccc(O)cc1)C(=O)N[C@@H](CCC(N)=O)C(=O)N[C@@H](CC(N)=O)C(=O)O)[C@@H](C)O ; system: DRB1*1501 (Homo sapiens, UniProt P01903+P01911)
Result: 6.40

====

# target under test: DRB4*0101 (Homo sapiens, UniProt P01903+P13762, G164S)
# assay: biochemical
parameter measured: pIC50
Answers are plain numbers, as −log10 of the molar value.

Record pIC50 per entry; entries follow.
1. CC[C@H](C)[C@H](NC(=O)[C@@H](NC(=O)[C@H](CC(C)C)NC(=O)[C@H](CC(N)=O)NC(=O)[C@H](CCCNC(=N)N)NC(=O)[C@H](CCCCN)NC(=O)[C@H](CCCCN)NC(=O)[C@H](Cc1ccccc1)NC(=O)[C@H](CCSC)NC(=O)[C@H](CCC(=O)O)NC(=O)[C@@H](N)CCC(=O)O)[C@@H](C)O)C(=O)N[C@@H](CCSC)C(=O)N[C@@H](CC(=O)O)C(=O)N[C@@H](CC(C)C)C(=O)N[C@@H](Cc1c[nH]cn1)C(=O)O
2. CC[C@H](C)[C@H](NC(=O)[C@H](CC(C)C)NC(=O)[C@H](CCC(=O)O)NC(=O)[C@H](CC(=O)O)NC(=O)[C@H](CCC(N)=O)NC(=O)[C@@H]1CCCN1C(=O)[C@H](CCCNC(=N)N)NC(=O)[C@H](CS)NC(=O)[C@@H]1CCCN1C(=O)[C@@H](NC(=O)[C@@H](NC(=O)[C@H](CC(C)C)NC(=O)[C@H](CCCCN)NC(=O)[C@H](CCCNC(=N)N)NC(=O)CNC(=O)[C@H](CC(=O)O)NC(=O)[C@@H](N)CCCCN)C(C)C)C(C)C)C(=O)O

Result:
7.17
4.75

====

So I've got a bunch of compounds here, and I need their pIC50 values.
# target under test: DRB1*0701 (Homo sapiens, UniProt P01903+P01911, A100R/A102G/A103Q/D57E/D86V/E43K/F76Y/K127E/L162R/M171V/P40G/Q125H/Q99D/R33Q/R42Y/R54Q/S133A/S66F/T210M/V115G/Y107V/Y59L/Y89S)
# assay: biochemical
Numbers only, as −log10 of the molar value.

1) CC[C@H](C)[C@H](NC(=O)[C@H](CC(=O)O)NC(=O)CNC(=O)[C@@H](NC(=O)[C@@H](NC(=O)[C@@H](NC(=O)[C@@H](NC(=O)[C@H](CC(C)C)NC(=O)[C@@H](N)CCCCN)[C@@H](C)O)C(C)C)C(C)C)C(C)C)C(=O)N[C@H](C(=O)NCC(=O)N[C@H](C(=O)N[C@@H](CC(C)C)C(=O)N[C@@H](CCC(=O)O)C(=O)N[C@@H](CCC(N)=O)C(=O)O)C(C)C)[C@@H](C)CC	7.15
2) CSCC[C@H](NC(=O)[C@@H](NC(=O)[C@H](Cc1ccccc1)NC(=O)[C@H](CCCNC(=N)N)NC(=O)[C@H](CC(N)=O)NC(=O)[C@H](CC(C)C)NC(=O)[C@H](CC(C)C)NC(=O)[C@H](CC(C)C)NC(=O)[C@H](CCCNC(=N)N)NC(=O)[C@H](CO)NC(=O)[C@@H](NC(=O)[C@@H](N)CCSC)C(C)C)[C@@H](C)O)C(=O)N[C@H](C(=O)N[C@@H](Cc1c[nH]cn1)C(=O)N[C@@H](CCCNC(=N)N)C(=O)N[C@@H](CCCNC(=N)N)C(=O)O)[C@@H](C)O	7.01
3) CC[C@H](C)[C@H](NC(=O)[C@H](C)NC(=O)[C@H](CC(N)=O)NC(=O)[C@H](C)NC(=O)[C@H](CC(C)C)NC(=O)[C@H](CCC(N)=O)NC(=O)[C@H](CCCNC(=N)N)NC(=O)[C@H](Cc1c[nH]cn1)NC(=O)[C@H](CCC(=O)O)NC(=O)[C@@H]1CCCN1)C(=O)N[C@@H](Cc1ccccc1)C(=O)N[C@@H](CCCCN)C(=O)N[C@@H](CC(C)C)C(=O)N[C@H](C(=O)N[C@@H](Cc1ccc(O)cc1)C(=O)N[C@@H](CCC(N)=O)C(=O)N[C@@H](CC(N)=O)C(=O)O)[C@@H](C)O	6.87
4) CSCC[C@H](NC(=O)[C@@H](NC(=O)[C@H](CCC(N)=O)NC(=O)[C@H](Cc1ccccc1)NC(=O)[C@H](CC(N)=O)NC(=O)[C@H](CCCCN)NC(=O)[C@@H]1CCCN1C(=O)[C@@H](N)CC(N)=O)[C@@H](C)O)C(=O)N1CCC[C@H]1C(=O)NCC(=O)N[C@H](C(=O)N[C@@H](Cc1ccccc1)C(=O)N[C@@H](CCC(N)=O)C(=O)N[C@H](C(=O)N[C@H](C(=O)O)[C@@H](C)O)[C@@H](C)O)[C@@H](C)O	5.55

Proceed to the following item.
Problem: Name the recorded pIC50 of the item CC[C@H](C)[C@H](NC(=O)[C@@H]1CCCN1C(=O)[C@H](CC(C)C)NC(=O)CNC(=O)[C@@H](N)CCCCN)C(=O)N[C@@H](CCCNC(=N)N)C(=O)N[C@@H](Cc1ccc(O)cc1)C(=O)N[C@@H](CCC(N)=O)C(=O)N[C@H](C(=O)N[C@H](C(=O)N[C@@H](C)C(=O)N[C@H](C(=O)N[C@@H](CCCCN)C(=O)N[C@@H](CO)C(=O)N[C@@H](CCC(=O)O)C(=O)O)[C@@H](C)O)[C@@H](C)O)[C@@H](C)O in your answer.
Result: 5.52
